Where do these numbers come from? They come from the supplement of paper PMC9170038.

system: MS2 coat protein; test: apparent KD of MS2 coat protein; designed switch direction (-1 OFF switch, 1 ON switch): -1; higher = weaker reporter binding; conditions: input ligand: microRNA oligo, concentration not stated
endpoint_name: apparent KD of MS2 coat protein (nM)
Give bare numbers, in nM.

monomer_sequence: UUCCUCGUUGUGAGGAUAUCGUCCGUGUUUUGUUACGAGAAGGCACAUGAGGAUCACCCAUGUUACUUGAUGUU [JR_BMOE4_Sub073] (Eterna round: R96, puzzle: Brourd's mod of Exclusion 4)
endpoint_name: apparent KD of MS2 coat protein
experimental_value: 19

Give apparent KD of MS2 coat protein for each of the items listed below.
1. CUGCUGGAGCGGCGCUUUGGUCGUACAUGAGGAUCACCCAUGUAGGAUAUGGUAAAAUUUGCCUGCUAGAAGGAUAGAGUGGUC [salish99_ExNG3_r04_616] (Eterna round: R96, puzzle: Exclusion NG 3)
2. AGUACUAACACGAGAGUGUUAGUACUAUAAGCUUGUGAAACAUGAGGAUCACCCAUGUCCUCAUAAGCUCGUCUUAU [Mat - Sensor v3 - Turn-off var 2 - D103] (Eterna round: R96, puzzle: Sensor v3, turn-off variant 2)

Result:
1: 70; 2: 452

Task: Requested field: apparent KD of MS2 coat protein. Item: CUUGCACGACGAGGAUAUCGUAAACAUGAGGAUCACCCAUGUAGGUGGCGUCGUCCUCUAUCUUGCGAGAAGGCGUAAAAUUAA [Begeeda] (Eterna round: R96, puzzle: Exclusion NG 2)
Result: 47.1

* * *

What apparent KD of MS2 coat protein was measured for each of the following?
tested on: MS2 coat protein; assay: apparent KD of MS2 coat protein; designed switch direction (-1 OFF switch, 1 ON switch): -1; higher = weaker reporter binding; settings: input ligand: none
Give bare numbers, in nM.

monomer_sequence: ACAUUACAUGAGGAUCACCCAUGUGAGGAUAUGGUGCGGUAGUGUCCUGUCGCGUACUCCAGAAGGCGCGGGUG [1st #46] (Eterna round: R97, puzzle: Exclusion 1)
study_target: MS2 coat protein
apparent KD of MS2 coat protein (nM): 194
//
monomer_sequence: AAUAAUAGCGAGGAUAUCGUAUCGGAAACGAUACGAGAAGGCGUAACAUGAGGAUCACCCAUGUUCCUCAAUAA [Fiskers Ex 6 - 3] (Eterna round: R96, puzzle: Exclusion 6)
study_target: MS2 coat protein
apparent KD of MS2 coat protein (nM): 41

Task: Query apparent KD of MS2 coat protein on MS2 coat protein for AGAUGCUCAAGUCGACAUGAGGAUCACCCAUGUACAGUUAACGAGGAUAUCCGAGAUAAAUAAUAGGAGAAGGCGUGAUCAUGA [Ex NG3 #3] (Eterna round: R96, puzzle: Exclusion NG 3)
Result: 123

* * *

What apparent KD of MS2 coat protein was measured for each of the following?
tested on: MS2 coat protein; assay: apparent KD of MS2 coat protein; higher = weaker reporter binding; details: Eterna round: R107; input ligand: tryptophan 2.4 mM
Give bare numbers, in µM.

Consider the reported apparent KD of MS2 coat protein for these sequences:
monomer_sequence: AGCGGAACGGAAGGGUCCCAAAAUUGUGAUACCAGCCUUGAAUCCGGCCCUUGGCAGCACAUGAGGAUCACCCAUGUACUGCGAU [Laanor]
value_unit: µM
experimental_value: 0.0128
//
monomer_sequence: UGUAUGGACUGAAGGAGCGGGUUGAUAUCAUGAGGAUCACCCAUGGAAAAGGCGAAAGCCGCCCAGGUAGGUCGCAGUCCAUACU
value_unit: µM
experimental_value: 0.026
//
monomer_sequence: ACAUGAGGAUCACCCAUGUUCCUCGCCGAUACCAGUGAAGAAGAACGCCCUUGGCAGCGGAAAGAAUAUUUUGGAGAUGAGGUAU [6.W]
value_unit: µM
experimental_value: 0.165

Task: Requested field: apparent KD of MS2 coat protein. Item: CCUAUCCAGUCGGCCGCCACUGAAAACAGUGGGUGAACAUGAGGAUCACCCAUGUAGGAUUUCCACAGGACCGGGACUGUAUAGG [Ex Tryptophan B 24]
Result: 0.223

* * *

system: K4 kissing-loop RNA reporter; test: apparent KD of K4 kissing-loop reporter; higher = weaker reporter binding; conditions: Eterna round: R107; input ligand: tryptophan 2.4 mM
What apparent KD of K4 kissing-loop reporter was measured for each of the following?
Give bare numbers, in nM.

Consider the reported apparent KD of K4 kissing-loop reporter for these sequences:
monomer_sequence: GCAUCCAUGGCAGGAUAUAGGUUCAUGGAGUGAUGUUCCAUAACCCGAGUGAUGUUCGUUAUCCACCUAGAAGGGCCAUGGAUGC
study_target: K4 kissing-loop RNA reporter
apparent KD of K4 kissing-loop reporter, nM: 180
--
monomer_sequence: ACUGGGUUGACGAAAGUCAACAAAAGAGAAGGAGCGCACGAAAGUGCAGGUAGGUCGCUCAUUCCAGUGAUGUUGGAUCACCAGA [#SwitchBubble 18 #K4Late]
study_target: K4 kissing-loop RNA reporter
apparent KD of K4 kissing-loop reporter, nM: 199

Now look at this one.
Task: Requested field: apparent KD of K4 kissing-loop reporter. Item: AAGUGAUGUUGUAGUGAUGUUGUGAUGUUGCAGGAUAUAUAGUGAUGUAGAAGGGUAUGUACAGAUUUUUUUUUUGAGUGAUGAU [ffdcmullin]
Result: 66.1

* * *

system: MS2 coat protein; assay: apparent KD of MS2 coat protein; designed switch direction (-1 OFF switch, 1 ON switch): -1; higher = weaker reporter binding; conditions: Eterna round: R95; input ligand: FMN 200 uM
endpoint_name: apparent KD of MS2 coat protein (nM)
One number for each entry, in nM.

monomer_sequence: AAAAGGUCAGGAUAUACAAGAAAAGAAAAGAAAAGAAAAGAGUAGAAGGGACAUGAGGAUCACCCAUGUAAAAG [Default title] (puzzle: Exclusion 4)
study_target: MS2 coat protein
apparent KD of MS2 coat protein, nM: 30.6

Give apparent KD of MS2 coat protein for each of the items listed below.
1. CGGGAGGGACAAGCUUUUUGCACGUCUGUUAUUGAUGCAACAUGAGGAUCACCCAUGUUUAGGGUGUGAGAGGAUGG [JR_SV3TOV2_Sub051] (puzzle: Sensor v3, turn-off variant 2)
2. AAUUAACAAGCAAGAUCCUACAUGAGGAUCACCCAUGUGCUCGUCUUAUAAAGUACUAUCACGAAAGUGAUAGUACA [Mat - Sensor v3 - turn-off var 1 - Eli Mod - D57] (puzzle: Sensor v3, turn-off variant 1)
3. GAUUAUGCGAGCUUUAGGGACAUGAGGAUCACCCAUGUUCGUCUUAUUGAUCUAGGUACGCUGACGUACCUAGAUCU [JL-sv1-2.35 Brourd mod] (puzzle: Sensor v3, turn-off variant 1)
4. AAGAAACAUGAGGAUCACCCAUGUGAGGAUAUGAUUAAGAAAAGAAAAGAAAGAAGACUCAGAAGGCACAAAGG [salish99-ex1_r3_069] (puzzle: Exclusion 1)
5. UAUUAACAAGCAAGAUCCUACAUGAGGAUCACCCAUGUGCUCGUCUUAUAAGGUACUGUGACGAAAGUCACGGUACC [Sensor 3, v1 - 70] (puzzle: Sensor v3, turn-off variant 1)

Result:
[373, 217, 21.9, 55.5, 294]

* * *

tested on: MS2 coat protein; experiment: apparent KD of MS2 coat protein; designed switch direction (-1 OFF switch, 1 ON switch): -1; higher = weaker reporter binding; settings: Eterna round: R95; input ligand: microRNA oligo, concentration not stated
What apparent KD of MS2 coat protein was measured for each of the following?
Numbers only, in nM.

Consider the reported apparent KD of MS2 coat protein for these sequences:
monomer_sequence: AAAAGGCUAGGAUAUCGCGGUAACAACAUGAGGAUCACCCAUGUGAAGGUGUCUUCUGCCCGAGAAGGAGCAGAGU [Tientixe] (puzzle: Exclusion 5)
apparent KD of MS2 coat protein, nM: 25.6
//
monomer_sequence: GUUACACAUGAGGAUCACCCAUGUAAGGAUAUGCUGCGGUCGCGCUGACGUGACUGCAGCAGAAGGUACACAUG (puzzle: Exclusion 1)
apparent KD of MS2 coat protein, nM: 86.8
//
monomer_sequence: ACAAGCUUUUUGUUCGUCUUAUAAUAUUCAAUAAAGAUAACAUGAGGAUCACCCAUGUAACAAAGACGGACUCAUGU [Sesor Array 16 - Jieux - Sensor v3, turn-off variant 2] (puzzle: Sensor v3, turn-off variant 2)
apparent KD of MS2 coat protein, nM: 267

Task: Requested field: apparent KD of MS2 coat protein. Item: GAUUAUGCGAGCUUUAGGGACAUGAGGAUCACCCAUGUUCGUCUUAUUGGUCUGGAUACGCUAACAUACCUAAAUCU [JMF 38] (puzzle: Sensor v3, turn-off variant 1)
Result: 30.6

* * *

system: K4 kissing-loop RNA reporter; test: apparent KD of K4 kissing-loop reporter; higher = weaker reporter binding; conditions: Eterna round: R107; input ligand: FMN 200 uM;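 note: bound reporter read as fluorescence of individual clusters on recovered sequencing chips by microscopy, with normalized cluster intensities fitted with a binding model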
What apparent KD of K4 kissing-loop reporter was measured for each of the following?
Answers are plain numbers, in nM.

monomer_sequence: UGGAGGAGUGAUGUUCCCGAAACAUGAGAUACCAGCGUCACAGUCCGCCCUUGGCAGCUCGGUCCAAUUUGCCUCGCGGGUAAUG [theeternabot_sameState_KL_Theo_A_23]
apparent KD of K4 kissing-loop reporter, nM: 244
--
monomer_sequence: AAGGUAUCUAGAUGCUAGCAACAACUAGAUACCAGCAUCGAAAGAUGCCCUUGGCAGCUAGCAGUGAUGUUGCUAGCAAUAAGAA [Design4]
apparent KD of K4 kissing-loop reporter, nM: 152
--
monomer_sequence: AAUUCCUGUUAUGAUACCAGAAAUCACAGCAACCUGCCUACCUAGUGAUGUUAGGAGAAUUUCCCUUGGCAGCAUCGACUGAAGG [theeternabot_sameState_KL_Theo_B_38]
apparent KD of K4 kissing-loop reporter, nM: 147

Now look at this one.
Task: Requested field: apparent KD of K4 kissing-loop reporter. Item: UGGACCUGACUCGAUAAGAGUCAAUGGGAUACCAGCCACGAAAGUGGCCCUUGGCAGCUCUACCAGUGAUGUUGGUCAAGGUCCU [#SwitchBubble 8 #StaticStem]
Result: 1050
